# credit: patent US8328934B2

MEASURED_ON: B. subtilis GCYH-IB (Bacillus subtilis)
Construct: His6 (cleaved yes); made in house; host or cells: E. coli BL21 (DE3), pET-30 Xa/LIC plasmid pSAB-9-61
Sequence (P94398 1-304): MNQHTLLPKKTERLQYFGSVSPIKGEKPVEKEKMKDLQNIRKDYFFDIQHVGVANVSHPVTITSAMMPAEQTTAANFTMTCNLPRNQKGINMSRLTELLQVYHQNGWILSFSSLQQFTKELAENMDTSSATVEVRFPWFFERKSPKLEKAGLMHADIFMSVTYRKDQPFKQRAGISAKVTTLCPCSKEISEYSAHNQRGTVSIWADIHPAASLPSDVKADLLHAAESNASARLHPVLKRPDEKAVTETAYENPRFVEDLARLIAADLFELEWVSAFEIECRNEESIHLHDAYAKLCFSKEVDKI
Format: biochemical
TEST_CONDITIONS: at the metal concentration for optimal activity; relative to Mn(II)
MEASUREMENT_LABEL: relative activity (%)
// note: answer is a bare numeric in %

So what's the measured relative activity (%) for this one? `[Ca+2]`
0

Please answer likewise for `[Fe+2]`
75

Please answer likewise for `[Zn+2]`
14

Please answer likewise for `[Cu+2]`
0

Please answer likewise for `[Fe+3]`
0

Please answer likewise for `[Co+2]`
24

Please answer likewise for `[Cd+2]`
0

Please answer likewise for `[Mg+2]`
43

Please answer likewise for `[Ni+2]`
9.8

Please answer likewise for `[Mn+2]`
100

Please answer likewise for `[Co+3]`
0
